protocol: yeast display, Sf9 membrane polyspecificity reagent, FACS + sequencing; frameworks hold sequencing errors
quantity-measured: polyreactivity (PSR sort gate)

sequence-code | quantity-measured | measured-result
QVQLVESGGGLVQAGGSLRLSCAASGGPFFYYAMGWYRAAPGKAREWVAAITWSATDTYYADSVKGRFTISRDNAKNTVYIQMNSLKPEDTAVYYCNAAPIGSEVDYGGQGTQVTVSS | polyreactivity (PSR sort gate) | low polyreactivity
QVQLVESGGGLVQAGGSLRLSCAASGFIFYGYAMGWYRQAPGKERELVAGISTGGSTNYADSVKGRFTISRDNAKNTVYLQMNSLKPEDTAVYYCAKRAYFYYGRYDYWGQGTQVTVSS | polyreactivity (PSR sort gate) | low polyreactivity
QVQLVESGGGLVQAGGSLRLSCAASGFTFKYNAMGWNRQAPGKERELVASISSGSTNYADSVKGRFTISRDNAKNTVYLQMNSLKPEDTAVYYCAASVSRGKRVRYGYLFKMDYWGQGTLVTVSS | polyreactivity (PSR sort gate) | low polyreactivity
QLQLVESGGGLVQAGGSLRLRCAASGRTFIRYAMGWYRPAPGKERELVAAISSRGGRTHYADSVKGRFTISRDNAKNTFYFQMNSLKPEDTAVYDCAADLNYGTVPGASYDYWGQGTQVTGSS | polyreactivity (PSR sort gate) | low polyreactivity
QVQLLESGGGLVQAGGSLRLSCAASGRTFWYYVMGWYRQAPGKERELFAAITSSGGSTYYADSVKGRFTISRDNAKNSVYLQMNSLKAEDTSVYYCGAAAYTRGYYWGQGTEVTVSS | polyreactivity (PSR sort gate) | low polyreactivity
QVQLVESGGGLVQAGGSLRLSCAASGRIFDYNTMGWYRQAPGKERELVAAITGGTGSTYYADSVKGRFTISRDNAKNTVYLHMNSLKPEDTAVYYCAAGFHKRVTPEILYDFWGQGTQVTVSS | polyreactivity (PSR sort gate) | low polyreactivity
QVQLVESGGGLVQAGGSLRLSCAASGSTLNRNVMGSYRQAPGKERELVAVITYGVGSTYYADSVKGRFTISRDNAKNTVYLQLNSLKPEDTAVYYCNKDPLVFDYWGQGTQVTVSS | polyreactivity (PSR sort gate) | low polyreactivity
QVQLVESGGGLVQAGGSLRLSCAASGFTFTRYGMGWYRQAPGKERELVAGISSGGSTNYADSVKGRFTISRDNAKNTVYLQRNSLKPEDTAVYYCAARAKRYNVRFDYWGQGTQVTVSS | polyreactivity (PSR sort gate) | high polyreactivity
QVQLQESGGGLVQAGGSLRLSCAASGTISPLPAMGWYRQAPGKEREFVAGIDTGAITNYADSVKGRFTISRDNAKNTVYLQMNSLKPEDTAVYYCAADLFLDGSSQYAPNWWPDGWNTYRLLGGYWGQGTQVTVSS | polyreactivity (PSR sort gate) | low polyreactivity
QVQLVESGGGLVQAGGSLRLSCAASGIIFKSYAMGWYRQAPGKERELVAAITKRGGSTYYADSVKGRFTISRDNAKNTVYLQMNSLKPEDSAVYYCAAFAVPYDYWGQGTQVTVSS | polyreactivity (PSR sort gate) | high polyreactivity
